test system: Gram-negative bacteria; settings: geometric mean of MICs, 9 Gram-negative strains (Table 2)
Where no end group is shown, it is not given here.
Output: class label from GM MIC. Mapping: class 0 = under 20 µM, class 1 = from 20 µM up to 90 µM, class 2 = 90 µM and over

substance="LLRLLRRRL-NH2 [L1]" class_name="class 0"
substance="RRLLLRLRL-NH2 [L8]" class_name="class 0"
substance="LRRRLLLLR-NH2 [L6]" class_name="class 2"
substance="LRRLRLRLL-NH2 [L3]" class_name="class 0"
substance="RLRLRRLLL-NH2 [L9]" class_name="class 1"
substance="RLLLLRRLR-NH2 [L10]" class_name="class 1"
substance="LLLRRRRLL-NH2 [L4]" class_name="class 2"
substance="LLRLRRRLL-NH2 [L2]" class_name="class 1"
substance="RRLLLLRRL-NH2 [L7]" class_name="class 2"
substance="RLRLRLRLL-NH2 [L5]" class_name="class 0"
substance="LRRLRLLRL-NH2 [L12]" class_name="class 1"
substance="LRRRRLLLL-NH2 [L11]" class_name="class 2"

---

test system: E. faecalis 29212; assay type: cell-based, Enterococcus faecalis; settings: 29212, 24 h
Where no end group is shown, it is not given here.
// reported MBC per item
measure.name: MBC

substance="WWRWRRRWW-NH2 [W2]" result="16 µM"
substance="WRRWRWWRW-NH2 [W12]" result="8 µM"
substance="LLRLLRRRL-NH2 [L1]" result="128 µM"
substance="WWRWWRRRW-NH2 [W1]" result="8 µM"
substance="WWWRRRRWW-NH2 [W4]" result="8 µM"
substance="WRRRRWWWW-NH2 [W11]" result="8 µM"
substance="RLRLRLRLL-NH2 [L5]" result="32 µM"
substance="RRWWWRWRW-NH2 [W8]" result="8 µM"
substance="RWWWWRRWR-NH2 [W10]" result="8 µM"
substance="RWRWRWRWW-NH2 [W5]" result="8 µM"
substance="WRRWRWRWW-NH2 [W3]" result="8 µM"
substance="WRRRWWWWR-NH2 [W6]" result="8 µM"
substance="RRWWWWRRW-NH2 [W7]" result="16 µM"
substance="RWRWRRWWW-NH2 [W9]" result="8 µM"

---

tested on: S. typhimurium 7731; format: cell-based, Salmonella typhimurium; settings: 7731, 24 h
Where no end group is shown, it is not given here.
measure.name: MBC (µM)

substance="WWRWRRRWW-NH2 [W2]" measured_number=8
substance="WRRRRWWWW-NH2 [W11]" measured_number=16
substance="WRRRWWWWR-NH2 [W6]" measured_number=16
substance="LRRLRLRLL-NH2 [L3]" measured_number=64
substance="RLLLLRRLR-NH2 [L10]" measured_number=128
substance="RRWWWWRRW-NH2 [W7]" measured_number=32
substance="RLRLRLRLL-NH2 [L5]" measured_number=8
substance="RWRWRRWWW-NH2 [W9]" measured_number=8
substance="RWWWWRRWR-NH2 [W10]" measured_number=8
substance="WWRWWRRRW-NH2 [W1]" measured_number=8
substance="LLRLRRRLL-NH2 [L2]" measured_number=128
substance="WWWRRRRWW-NH2 [W4]" measured_number=16
substance="RRLLLRLRL-NH2 [L8]" measured_number=64
substance="WRRWRWWRW-NH2 [W12]" measured_number=16
substance="RRWWWRWRW-NH2 [W8]" measured_number=8
substance="RLRLRRLLL-NH2 [L9]" measured_number=128
substance="RWRWRWRWW-NH2 [W5]" measured_number=8
substance="WRRWRWRWW-NH2 [W3]" measured_number=16
substance="LLRLLRRRL-NH2 [L1]" measured_number=32

---

test system: E. coli K99; details: value in brackets; >99.9% of cells killed
Where no end group is shown, it is not given here.
// values below are reported MBC
measure.name: MBC (µM)

substance="RLRLRRLLL-NH2 [L9]" study_system="E. coli K99" measured_number=32
substance="LLRLLRRRL-NH2 [L1]" study_system="E. coli K99" measured_number=16
substance="RLRLRLRLL-NH2 [L5]" study_system="E. coli K99" measured_number=8
substance="RRLLLRLRL-NH2 [L8]" study_system="E. coli K99" measured_number=32
substance="LRRRLLLLR-NH2 [L6]" study_system="E. coli K99" measured_number=128
substance="LLRLRRRLL-NH2 [L2]" study_system="E. coli K99" measured_number=16
substance="RRLLLLRRL-NH2 [L7]" study_system="E. coli K99" measured_number=128
substance="RLLLLRRLR-NH2 [L10]" study_system="E. coli K99" measured_number=8
substance="LRRLRLRLL-NH2 [L3]" study_system="E. coli K99" measured_number=32

---

Quick reference for MIC, MgCl2 among some substances
system: E. coli ATCC 25922; test: Salt sensitivity assay (MIC); format: cell-based, Escherichia coli; details: 1 mM MgCl2
Where no end group is shown, it is not given here.
measure.name: MIC, MgCl2 (µM)

substance="RLRLRRLLL-NH2 [L9]" qualifier_symbol== measured_number=32
substance="RLRLRLRLL-NH2 [L5]" qualifier_symbol== measured_number=0.5
substance="RWRWRWRWW-NH2 [W5]" qualifier_symbol== measured_number=2
substance="LRRLRLLRL-NH2 [L12]" qualifier_symbol=> measured_number=64
substance="RRLLLLRRL-NH2 [L7]" qualifier_symbol=> measured_number=64
substance="WWWRRRRWW-NH2 [W4]" qualifier_symbol== measured_number=16
substance="RRLLLRLRL-NH2 [L8]" qualifier_symbol== measured_number=32
substance="LRRRLLLLR-NH2 [L6]" qualifier_symbol=> measured_number=64
substance="LLRLRRRLL-NH2 [L2]" qualifier_symbol== measured_number=16

---

Quick reference: MIC, NH4Cl of the listed items.
test system: E. coli ATCC 25922; assay: Salt sensitivity assay (MIC); assay type: cell-based, Escherichia coli; settings: 6 μM NH4Cl
Where no end group is shown, it is not given here.
measure.name: MIC, NH4Cl (µM)

substance="RWWWWRRWR-NH2 [W10]" study_system="E. coli ATCC 25922" value_units=µM qualifier_symbol== measured_number=8
substance="LLRLRRRLL-NH2 [L2]" study_system="E. coli ATCC 25922" value_units=µM qualifier_symbol== measured_number=8
substance="LRRLRLLRL-NH2 [L12]" study_system="E. coli ATCC 25922" value_units=µM qualifier_symbol== measured_number=32
substance="RWRWRRWWW-NH2 [W9]" study_system="E. coli ATCC 25922" value_units=µM qualifier_symbol== measured_number=4
substance="LRRLRLRLL-NH2 [L3]" study_system="E. coli ATCC 25922" value_units=µM qualifier_symbol== measured_number=16
substance="RWRWRWRWW-NH2 [W5]" study_system="E. coli ATCC 25922" value_units=µM qualifier_symbol== measured_number=4
substance="WWRWRRRWW-NH2 [W2]" study_system="E. coli ATCC 25922" value_units=µM qualifier_symbol== measured_number=4
substance="LRRRLLLLR-NH2 [L6]" study_system="E. coli ATCC 25922" value_units=µM qualifier_symbol=> measured_number=64
substance="LLRLLRRRL-NH2 [L1]" study_system="E. coli ATCC 25922" value_units=µM qualifier_symbol== measured_number=4

---

Measured MIC, MgCl2, listed per entry.
system: E. coli ATCC 25922; experiment: Salt sensitivity assay (MIC); type: cell-based, Escherichia coli; conditions: 1 mM MgCl2
Where no end group is shown, it is not given here.
measure.name: MIC, MgCl2 (µM)

substance="RWWWWRRWR-NH2 [W10]" study_system="E. coli ATCC 25922" qualifier_symbol== measured_number=16
substance="WRRRWWWWR-NH2 [W6]" study_system="E. coli ATCC 25922" qualifier_symbol== measured_number=8
substance="LLLRRRRLL-NH2 [L4]" study_system="E. coli ATCC 25922" qualifier_symbol=> measured_number=64
substance="WRRWRWRWW-NH2 [W3]" study_system="E. coli ATCC 25922" qualifier_symbol== measured_number=8
substance="RWRWRRWWW-NH2 [W9]" study_system="E. coli ATCC 25922" qualifier_symbol== measured_number=8
substance="WRRWRWWRW-NH2 [W12]" study_system="E. coli ATCC 25922" qualifier_symbol== measured_number=4

---

test system: E. coli K99; details: MHB, 24 h 37°C, 95% growth inhibition
Where no end group is shown, it is not given here.
Attribute: MIC
measure.name: MIC (µM)

substance="LLRLRRRLL-NH2 [L2]" study_system="E. coli K99" qualifier_symbol== measured_number=8
substance="RLRLRLRLL-NH2 [L5]" study_system="E. coli K99" qualifier_symbol== measured_number=4
substance="LLLRRRRLL-NH2 [L4]" study_system="E. coli K99" qualifier_symbol=> measured_number=64
substance="LRRLRLLRL-NH2 [L12]" study_system="E. coli K99" qualifier_symbol=> measured_number=64
substance="LLRLLRRRL-NH2 [L1]" study_system="E. coli K99" qualifier_symbol== measured_number=8
substance="LRRRLLLLR-NH2 [L6]" study_system="E. coli K99" qualifier_symbol== measured_number=64
substance="RRLLLLRRL-NH2 [L7]" study_system="E. coli K99" qualifier_symbol== measured_number=64
substance="RRLLLRLRL-NH2 [L8]" study_system="E. coli K99" qualifier_symbol== measured_number=16
substance="RLRLRRLLL-NH2 [L9]" study_system="E. coli K99" qualifier_symbol== measured_number=16
substance="RLLLLRRLR-NH2 [L10]" study_system="E. coli K99" qualifier_symbol== measured_number=4
substance="LRRRRLLLL-NH2 [L11]" study_system="E. coli K99" qualifier_symbol=> measured_number=64
substance="LRRLRLRLL-NH2 [L3]" study_system="E. coli K99" qualifier_symbol== measured_number=16
